experimental protocol: Bmi1 luciferase reporter increase in mESCs, primary screen, esBAF inhibitor project, mouse ES cells, Bmi1 luciferase knock-in, single point (AID 602393);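 also: 0% = median of the plate's neutral control wells and 100% = double that signal; a rise in the Bmi1 reporter signal indicates esBAF inhibition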
applied conditions: 24 h, at 12.5 µM, active compounds read high, 100% = twice the neutral-well signal
Screen size: about 350,000 compounds; about 7,000 (2%) were called active. This is one part of a sample in which actives are shown more often than they occur.

compound	reporter increase, %
Cc1noc(C)c1-c1ccc(C(=O)NCc2ccncc2)c2occc12	8.81
COc1ccc(C=C(C#N)C#N)c(CSc2ccccn2)c1	-8.92
COCCCNC(=O)c1ccc(-c2c(C)noc2C)c2ccoc12	78.5
O=C1/C(=C/c2cccs2)CCc2ccccc21	56.4
COc1ccc(CN2C(=O)C(C)S/C2=N/N=C/c2ccco2)cc1 (stereo unspecified)	70.2
COc1ccc(/C=N/OCc2ccccc2C#N)c(OC)c1	82.2
COc1ccc([C@H]2CC(=O)C=C(c3ccc(C)cc3)C2)cc1	8.3
C=CCN1C(=O)C(Cc2cccc(Cl)c2)S/C1=N/N=C/c1ccco1 (stereo unspecified)	-2.3
COc1ccc(/C=C2/C(=O)N(c3ccccc3)N=C2C)c(OC)c1	-1.3
COc1ccc(/C=N/NC(=O)C2CC2)c(OC)c1OC	-5.72
CCN(CC)C(=O)C1=C(C)N(Cc2ccc(OC)cc2)C(=O)C(CC(=O)NCc2ccco2)C1 (stereo unspecified)	-3.89

###

Overview of reported reporter increase across a group of compounds:
experimental protocol: Bmi1 luciferase reporter increase in mESCs, primary screen, esBAF inhibitor project, mouse ES cells, Bmi1 luciferase knock-in, single point (AID 602393);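 also: 0% = median of the plate's neutral control wells and 100% = double that signal; a rise in the Bmi1 reporter signal indicates esBAF inhibition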
applied conditions: 24 h, at 12.5 µM, active compounds read high, 100% = twice the neutral-well signal
Hit rate of the full screen: of about 350,000 compounds, about 7,000 (2%) were called active. The list comes from a sample in which actives are over-represented; it also holds close analogues and randomly drawn compounds.

compound	reporter increase [%]
CCCNC(=O)C[C@@H]1CC[C@H]2[C@H](COc3ccc(NS(=O)(=O)c4ccccc4C)cc3C(=O)N2C)O1	0.502
CCc1ccc(NC(=O)C(=O)NNC(=O)c2cccs2)cc1	12.8
CC(=O)Nc1cccc(-c2cnc3ccccc3n2)c1	72.3
CC(C)NC(=O)N[C@@H]1CC[C@H](CCn2cc(-c3ccccc3)nn2)O[C@H]1CO	1.66
CC(C)n1c(COc2ccccc2)nc2ccccc21	-1.17
Cc1cccc(NC(=S)NC(=O)c2ccc(Br)o2)c1	52.3
O=C(CN1C(=O)COc2ccccc21)Nc1ccc(F)cc1	72.1
CN(C)C(=O)C[C@H]1CC[C@@H](NC(=O)Nc2cccc(F)c2)[C@H](CO)O1	-0.909
CCC(=O)Nc1ccc2c(c1)OC[C@@H](C)N(CC1CC1)C[C@H](C)[C@H](OC)CN(C)C2=O	2.9
C#CCSc1nnc(-c2sc3ccccc3c2Cl)o1	51
CCS(=O)(=O)c1ccc(-c2cccc(NC(=O)c3ccc(Br)o3)c2)nn1	-4.52
O=C(CNC(=O)c1cccs1)N/N=C/c1cccc(Br)c1	-3.05
C[C@@H]1CN([C@H](C)CO)C(=O)c2cc(-c3cccc(C#N)c3)cnc2O[C@H]1CN(C)C(=O)C1CCC1	-9.7
C[C@@H]1CN([C@@H](C)CO)C(=O)c2cc(-c3ccc(C#N)cc3)cnc2O[C@H]1CN(C)C(=O)CN(C)C	0.919
CC(C)(c1ccccc1)c1ccc(OCCN2CCCC2)cc1	-18.8
COc1cc(-c2nnc(NC(=O)C3=COCCO3)o2)cc(OC)c1OC	-0.666
COc1cc(NC(=O)c2ccc(-c3csc(C)n3)cc2)c(OC)cc1Cl	23.9
COc1ccc(C(=O)OCC(=O)Nc2cc(C)on2)cc1F	0.512
CC(=O)Nc1cccc(-c2csc(Nc3cccc(C)n3)n2)c1	51.5
Cc1noc(C)c1NC(=O)Nc1ccc2c(c1)C(=O)N([C@@H](C)CO)C[C@@H](C)[C@H](CN(C)C(=O)Nc1ccc(C(F)(F)F)cc1)OCCCC[C@@H](C)O2	11
COCc1nc2ccccc2n1Cc1ccccc1Br	-3.15
COc1cccc(-c2cnc3c(NC(C)=O)cc(-c4cccc(NC(C)=O)c4)cn23)c1	6.31
C[C@H](CO)N1C[C@H](C)[C@H](CN(C)C(=O)C2CCOCC2)Oc2ncc(-c3ccccc3F)cc2C1=O	-0.932
C[C@H](CO)N1C[C@H](C)[C@@H](CN(C)C(=O)Nc2ccc3c(c2)OCO3)Oc2ccc(NS(=O)(=O)c3ccc(Cl)cc3)cc2CC1=O	-3.55
Cc1ccccc1S(=O)(=O)NCC[C@@H]1CC[C@H](NC(=O)C2CCC2)[C@@H](CO)O1	-0.558
CCCCSc1nnc(-c2ccc(C)cc2)o1	17.9
CC(=O)Nc1cccc(-c2cc(NC(C)=O)c3ncc(-c4ccccc4)n3c2)c1	-27.3
Cc1cc(NC(=O)COc2ccccc2C#N)no1	70
COCC#Cc1cnc2c(c1)C(=O)N([C@H](C)CO)C[C@@H](C)[C@@H](CN(C)C(=O)Nc1cccc(F)c1)O2	-0.578
CC(=O)Nc1ccc(S(=O)(=O)Nc2ccc(N3CCOCC3)c(F)c2)cc1	0.869
Cc1cccc(C)c1OCCN1CCOCC1	-3.46
CCC(CC)c1nnc(NC(=O)C2=COCCO2)s1	53.6
O=C(Nc1cccc(C(=O)O)c1)/C(=C\c1ccccc1)NC(=O)c1ccc(Br)o1	-2.41
CC(=O)Nc1ccc(/C=N/NC(=O)c2cccs2)cc1	48.3
CC(OC(=O)CN1C(=O)COc2ccccc21)C(=O)NCc1ccc(F)cc1 (stereo not given)	-4.32
CO[C@@H]1CN(C)C(=O)c2cc(NC(=O)c3ccccc3F)ccc2OC[C@@H](C)N(CC2CC2)C[C@H]1C	1.73
C[C@@H]1CN([C@H](C)CO)C(=O)c2cc(-c3ccccc3F)cnc2O[C@H]1CN(C)C(=O)NC1CCCCC1	-2.88
C[C@@H]1CN([C@H](C)CO)C(=O)c2cc(C#CC3CC3)cnc2O[C@@H]1CN(C)Cc1ccccn1	-2.08
COc1ccccc1-c1ccc2c(c1)[C@H]1[C@H](CCN1S(=O)(=O)c1ccccc1)[C@@H](CO)N2	-9.94
O=C(C[C@@H]1C=C[C@@H](NC(=O)c2ccc3c(c2)OCO3)[C@H](CO)O1)NC1Cc2ccccc2C1	4.12
